Values were extracted from patent US5385927A.

# Test system: male NMRI mice
# Method Notes: Toxicity by means of Irwin's test, intraperitoneal
# Type: in vivo, mouse (NMRI)
# Assay Context: death of two out of three animals within 24 hours
Readout Type: Lethal dose (mg/kg)
Give the value, in units of mg/kg, as a plain number.

Quick one: Lethal dose for N=C(NO)c1cccc(Cc2c[nH]cn2)c1O ?
232

// Lethal dose lookup, key: CC(c1c[nH]cn1)c1cccc(C(=N)N)c1O (single isomer, unassigned; (-)) [E]
248

Fill in: Lethal dose of CNC(=N)c1cccc(Cc2c[nH]cn2)c1O is ___
230

What measured Lethal dose goes with N=C(NN)c1cccc(Cc2c[nH]cn2)c1O ?
416

Param item = CC(C)NC(=N)c1cccc(Cc2c[nH]cn2)c1O ; retrieve measured Lethal dose.
155

Query (compound): CC(c1c[nH]cn1)c1cccc(C(=N)N)c1O (single isomer, unassigned; (+)) [D] ; field requested: Lethal dose
25
